- tested.system: c-Met (Homo sapiens, UniProt P08581)
- Sequence (P08581 25-1390): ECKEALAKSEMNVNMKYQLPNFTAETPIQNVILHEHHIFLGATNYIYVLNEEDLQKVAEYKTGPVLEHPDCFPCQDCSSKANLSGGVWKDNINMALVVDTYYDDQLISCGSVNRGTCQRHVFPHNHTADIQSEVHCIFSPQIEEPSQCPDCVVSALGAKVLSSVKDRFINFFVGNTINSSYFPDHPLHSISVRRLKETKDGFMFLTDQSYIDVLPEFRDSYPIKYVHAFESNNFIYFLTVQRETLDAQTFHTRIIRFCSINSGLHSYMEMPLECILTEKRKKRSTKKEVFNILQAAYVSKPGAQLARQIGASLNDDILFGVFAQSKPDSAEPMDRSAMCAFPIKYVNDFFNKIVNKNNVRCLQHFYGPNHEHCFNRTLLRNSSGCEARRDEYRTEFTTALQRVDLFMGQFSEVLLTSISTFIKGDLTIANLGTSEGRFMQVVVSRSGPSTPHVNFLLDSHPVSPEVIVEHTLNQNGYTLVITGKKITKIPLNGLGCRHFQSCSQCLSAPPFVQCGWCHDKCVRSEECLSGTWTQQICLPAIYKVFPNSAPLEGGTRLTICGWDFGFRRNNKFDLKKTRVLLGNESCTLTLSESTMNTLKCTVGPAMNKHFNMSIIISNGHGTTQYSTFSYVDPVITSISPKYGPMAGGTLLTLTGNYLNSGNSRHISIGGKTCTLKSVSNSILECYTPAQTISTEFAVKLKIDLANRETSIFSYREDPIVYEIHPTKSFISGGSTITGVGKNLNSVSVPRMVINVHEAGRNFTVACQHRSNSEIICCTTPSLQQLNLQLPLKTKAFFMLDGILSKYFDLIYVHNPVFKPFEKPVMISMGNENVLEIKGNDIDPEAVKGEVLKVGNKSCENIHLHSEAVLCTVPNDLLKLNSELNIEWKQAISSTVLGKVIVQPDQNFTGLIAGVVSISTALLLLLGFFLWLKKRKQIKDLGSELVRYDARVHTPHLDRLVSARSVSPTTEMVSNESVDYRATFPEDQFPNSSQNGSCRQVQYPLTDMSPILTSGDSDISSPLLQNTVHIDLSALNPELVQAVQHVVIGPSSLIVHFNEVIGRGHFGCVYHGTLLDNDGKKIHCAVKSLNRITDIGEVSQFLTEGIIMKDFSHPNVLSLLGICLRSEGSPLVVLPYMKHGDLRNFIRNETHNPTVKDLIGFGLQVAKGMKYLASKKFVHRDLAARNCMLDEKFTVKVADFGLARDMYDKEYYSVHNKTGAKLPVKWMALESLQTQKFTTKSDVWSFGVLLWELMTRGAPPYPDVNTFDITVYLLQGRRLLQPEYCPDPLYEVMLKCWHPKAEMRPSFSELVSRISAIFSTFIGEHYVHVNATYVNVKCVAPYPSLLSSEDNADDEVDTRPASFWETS
- assay.explanation: Ki determination for the inhibition of c-Met kinase activity (standard coupled enzyme system)
- Type: biochemical
- details: coupled enzyme system, 200 μM ATP, 10 μM polyGluTyr, 80 nM c-Met, 30° C.; read-out: c-Met Ki
result.type: Ki

Known results for molecules:
Fc1cccc(Nc2nn3c(Cn4ccc5ncccc54)nnc3s2)c1    100 to 2000 nM
COC(=O)c1ccc(Nc2nn3c(Cc4ccc(O)cc4)nnc3s2)cc1    < 100 nM
C[C@@H](c1ccc(O)cc1)c1nnc2sc(Nc3ccc(Cl)cc3)nn12    < 100 nM

Report Ki for "c1ccc(-c2ccc3nnc(Cc4ccc5c(c4)OCO5)n3n2)cc1" please.
100 to 2000 nM

Report Ki for "Cc1ccc(Nc2nn3c(Cc4ccc(O)cc4)nnc3s2)cc1" please.
< 100 nM

Report Ki for "Oc1ccc(Cc2nnc3sc(NCc4ccccc4)nn23)cc1" please.
100 to 2000 nM

Report Ki for "CNC(=O)c1cccc(Nc2ccc3nnc(Cc4ccc5c(c4)OCO5)n3n2)c1" please.
100 to 2000 nM

Report Ki for "Oc1cccc(Cc2nnc3sc(Nc4cccc(F)c4)nn23)c1" please.
100 to 2000 nM

Report Ki for "CNC(=O)c1cccc(Nc2ccc3nnc(Cc4ccc(O)c(Cl)c4)n3n2)c1" please.
100 to 2000 nM

----------
Known Ki of a selection of compounds
- tested.system: c-Met (Homo sapiens)
- assay.explanation: Ki determination for the inhibition of c-Met kinase activity (standard coupled enzyme system)
- Format: biochemical
- details: coupled enzyme system, 200 μM ATP, 10 μM polyGluTyr, 80 nM c-Met, 30° C.; read-out: c-Met Ki

Known results for compounds:
OCCCCNc1ccc2nnc(Cc3ccc(O)cc3)n2n1    0.1 to 2 µM
C[C@@H](c1ccc(O)cc1)c1nnc2sc(Nc3cncc(Cl)c3)nn12    < 0.1 µM

Report Ki for "Oc1ccc(Cc2nnc3ccc(-c4ccccc4)nn23)cc1" please.
0.1 to 2 µM

Report Ki for "CC(C)Oc1cccc(Nc2nn3c([C@@H](C)c4ccc(O)cc4)nnc3s2)c1" please.
< 0.1 µM

Report Ki for "Oc1ccc(Cc2nnc3ccc(Nc4ccccc4)nn23)cc1" please.
< 0.1 µM

----------
Known Ki of a selection of molecules
- tested.system: c-Met (Homo sapiens, UniProt P08581)
- assay.explanation: Ki determination for the inhibition of c-Met kinase activity (standard coupled enzyme system)
- Type: biochemical
- details: coupled enzyme system, 200 μM ATP, 10 μM polyGluTyr, 80 nM c-Met, 30° C.; read-out: c-Met Ki

O=C(Nc1ccccc1)Nc1nn2c(Cc3ccc(O)cc3)nnc2s1 [Compound 113]    > 2 µM

Report Ki for NC(=O)C1CCCN(c2ccc3nnc(Cc4ccc(O)cc4)n3n2)C1 (stereo not shown) [Compound 179] please.
> 2 µM

Report Ki for Oc1ccc(Cc2nnc3sc(NC4CCCCC4)nn23)cc1 [Compound 86] please.
0.1 to 2 µM

Report Ki for OCc1cccc(Nc2ccc3nnc(Cc4ccc(O)c(Cl)c4)n3n2)c1 [Compound 261] please.
0.1 to 2 µM

----------
- tested.system: c-Met (Homo sapiens)
- assay.explanation: Ki determination for the inhibition of c-Met kinase activity (standard coupled enzyme system)
- Format: biochemical
- details: coupled enzyme system, 200 μM ATP, 80 nM c-Met, 30° C.; read-out: c-Met Ki
pKi: −log10 of the molar value.
Known pKi of a selection of molecules

CC(c1ccc(O)cc1)c1nnc2ccc(Nc3cccc(Cl)c3)nn12 (stereo not drawn)    > 7.00
C[C@@H](c1ccc(O)cc1)c1nnc2ccc(NC3CCCCC3)nn12    > 7.00
Clc1cccc(Nc2ccc3nnc(CNc4ccc5[nH]ccc5c4)n3n2)c1    < 5.70
CC(c1ccc(O)cc1)c1nnc2n1N=C(c1ccccc1)CS2 (stereo not drawn)    > 7.00
CN1C2CCC1CC(Nc1ccc3nnc(Cc4ccc(O)cc4)n3n1)C2 (stereo not drawn)    < 5.70
Clc1cccc(Nc2ccc3nnc(Cn4ncc5ccccc54)n3n2)c1    < 5.70
C[C@H](Nc1ccc2nnc(Cc3ccc(O)cc3)n2n1)c1ccccc1    5.70 to 7.00
Oc1ccc(Cc2nnc3n2N=C(c2ccncc2)CS3)cc1    5.70 to 7.00
Oc1cccc2ccc(NCc3nnc4ccc(Nc5cccc(Cl)c5)nn34)nc12    < 5.70
CN(C)S(=O)(=O)Nc1cccc(Cc2nnc3ccc(Nc4cccc(Cl)c4)nn23)c1    < 5.70

Report pKi for "CCOC(=O)C1=Nn2c(Cc3ccc(O)cc3)nnc2SC1" please.
5.70 to 7.00

Report pKi for "C[C@@H](c1ccc(O)cc1)c1nnc2ccc(Nc3cc(Cl)ccc3OCCN3CCCC3)nn12" please.
5.70 to 7.00

Report pKi for "O=C(Cc1nnc2ccc(Nc3cccc(Cl)c3)nn12)c1cccnc1" please.
< 5.70

Report pKi for "COc1ccc(NCc2nnc3ccc(Nc4cccc(Cl)c4)nn23)cc1OC" please.
< 5.70

Report pKi for "COc1cc(NCc2nnc3ccc(Nc4cccc(Cl)c4)nn23)c(C(C)=O)cc1OC" please.
< 5.70

Report pKi for "CCOC(=O)N1CCC(Nc2ccc3nnc(Cc4ccc(O)cc4)n3n2)CC1" please.
5.70 to 7.00

Report pKi for "Clc1cccc(Nc2ccc3nnc(CCc4cccnc4)n3n2)c1" please.
< 5.70

Report pKi for "O=C(Nc1ccc2nnc(Cc3ccc(O)cc3)n2n1)c1cccc(Cl)c1" please.
< 5.70
